# Species: Rattus norvegicus
# assayOverview: Open TG-GATES - Regimen: Single
# Assay type: toxicity, organism-based, Sprague-Dawley
# Set-up: regimen Single, gender Male, age 6 weeks
# statedConditions: in vivo, po, 0 mg/kg, 6 h, tissue Plasma, route gavage, dose level Control
measuredQuantity: TBIL (mg/dL)
One number for each entry, in mg/dL.

{"compound": "C[C@]12CCC(=O)C=C1CC[C@@H]1[C@@H]2CC[C@@]2(C)[C@H]1CC[C@]2(C)O", "testResult": 0.046}
{"compound": "CCN1CCCC1CNC(=O)c1cc(S(N)(=O)=O)ccc1OC (stereo unspecified) [SULPIRIDE]", "testResult": 0.072}
{"compound": "CC(=N)S [THIOACETAMIDE]", "testResult": 0.4}
{"compound": "CCC(C)(C)C(=O)O[C@H]1C[C@@H](C)C=C2C=C[C@H](C)[C@H](CC[C@@H]3C[C@@H](O)CC(=O)O3)[C@H]21", "testResult": 0.4}
{"compound": "CN1C(=O)OC(C)(C)C1=O", "testResult": 0.064}
{"compound": "Nc1nc(N)c2nc(-c3ccccc3)c(N)nc2n1", "testResult": 0.066}

Give measured TBIL for every item shown.
1. O=C(O)c1cccnc1
2. CC(C)C(=O)Nc1ccc([N+](=O)[O-])c(C(F)(F)F)c1 [FLUTAMIDE]
3. CC(C)(S)[C@@H](N)C(=O)O
4. Oc1ncnc2[nH]ncc12
5. CCc1oc2ccccc2c1C(=O)c1cc(I)c(O)c(I)c1
6. O=C(N[C@H](CO)[C@H](O)c1ccc([N+](=O)[O-])cc1)C(Cl)Cl
7. C[C@](N)(Cc1ccc(O)c(O)c1)C(=O)O
8. CC(=O)Oc1cc(C(C)C)c(OCCN(C)C)cc1C

1: 0.008; 2: 0.2; 3: 0.038; 4: 0.3; 5: 0.4; 6: 0.064; 7: 0.076; 8: 0.016

Give measured TBIL for every item shown.
1. CCSCC[C@H](N)C(=O)O
2. C#C[C@]1(O)CC[C@H]2[C@@H]3CCc4cc(O)ccc4[C@H]3CC[C@@]21C

[0.1, 0.046]

---

# Species on record: Rattus norvegicus
# assayOverview: Open TG-GATES - Regimen: Daily Repeat
# Assay type: toxicity, organism-based, Sprague-Dawley
# Parameters: regimen Daily Repeat, gender Male, age 6 weeks
# statedConditions: in vivo, po, 1000 mg/kg, 72 h, tissue Blood, route gavage, dose level High, time 3 day
measuredQuantity: Plat (x10_4/uL)
Answers are plain numbers, in x10_4/uL.

Solved cases (3 shown):
{"compound": "O=C(O)c1cccnc1 [NIACIN]", "measuredQuantity": "Plat", "measurementUnits": "x10_4/uL", "testResult": 119.3}
{"compound": "CC(C)(S)[C@@H](N)C(=O)O [PENICILLAMINE]", "measuredQuantity": "Plat", "measurementUnits": "x10_4/uL", "testResult": 121.8}
{"compound": "CCN1CCCC1CNC(=O)c1cc(S(N)(=O)=O)ccc1OC (centres undefined) [SULPIRIDE]", "measuredQuantity": "Plat", "measurementUnits": "x10_4/uL", "testResult": 128.6}

Any idea what Plat was measured for O=C(N[C@H](CO)[C@H](O)c1ccc([N+](=O)[O-])cc1)C(Cl)Cl [CHLORAMPHENICOL] ?
109.7

---

# Species on record: Rattus norvegicus
# assayOverview: Open TG-GATES - Regimen: Daily Repeat
# Type: toxicity, organism-based, Sprague-Dawley
# Set-up: regimen Daily Repeat, gender Male, age 6 weeks
# statedConditions: in vivo, po, 0 mg/kg, […], tissue Plasma, route gavage, dose level Control, time 7 day
measuredQuantity: TC (mg/dL)
One number for each entry, in mg/dL.

Give measured TC for every item shown.
1. CN1C(=O)OC(C)(C)C1=O
2. CC(=O)Oc1cc(C(C)C)c(OCCN(C)C)cc1C
3. O=C(N[C@H](CO)[C@H](O)c1ccc([N+](=O)[O-])cc1)C(Cl)Cl
4. C[C@]12CCC(=O)C=C1CC[C@@H]1[C@@H]2CC[C@@]2(C)[C@H]1CC[C@]2(C)O
5. CCSCC[C@H](N)C(=O)O

1. 85.6
2. 72.2
3. 79
4. 73
5. 70.6

---

# Species on record: Rattus norvegicus
# assayOverview: Open TG-GATES - Regimen: Daily Repeat
# Format: toxicity, organism-based, Sprague-Dawley
# Design: regimen Daily Repeat, gender Male, age 6 weeks
# statedConditions: in vivo, po, 0 mg/kg, […], tissue Plasma, route gavage, dose level Control, time 14 day
So I've got a bunch of compounds here, and I need their GLC values.
One number for each entry, in mg/dL.

Give measured GLC for every item shown.
1. Nc1nc(N)c2nc(-c3ccccc3)c(N)nc2n1
2. Oc1ncnc2[nH]ncc12
3. C[C@]12CCC(=O)C=C1CC[C@@H]1[C@@H]2CC[C@@]2(C)[C@H]1CC[C@]2(C)O
4. CCSCC[C@H](N)C(=O)O
5. CC(=O)Oc1cc(C(C)C)c(OCCN(C)C)cc1C
6. CN1C(=O)OC(C)(C)C1=O
7. CCN1CCCC1CNC(=O)c1cc(S(N)(=O)=O)ccc1OC (stereo not given) [SULPIRIDE]

191.6
206.4
187
240.8
197.6
208.2
193.8

Give measured GLC for every item shown.
1. O=C(O)c1cccnc1
2. O=C(N[C@H](CO)[C@H](O)c1ccc([N+](=O)[O-])cc1)C(Cl)Cl
3. CC(C)C(=O)Nc1ccc([N+](=O)[O-])c(C(F)(F)F)c1 [FLUTAMIDE]

1. 198.2
2. 187.6
3. 202.2

---

# Species: Rattus norvegicus
# assayOverview: Open TG-GATES - Regimen: Single
# Format: toxicity, organism-based, Sprague-Dawley
# Set-up: regimen Single, gender Male, age 6 weeks
# statedConditions: in vivo, po, 0 mg/kg, 3 h, tissue Blood, route gavage, dose level Control
measuredQuantity: APTT (s)
Answers are plain numbers, in s.

Solved cases (5 shown):
{"molecule": "Oc1ncnc2[nH]ncc12", "APTT, s": 16.7}
{"molecule": "CCN1CCCC1CNC(=O)c1cc(S(N)(=O)=O)ccc1OC (stereo not given) [SULPIRIDE]", "APTT, s": 17.6}
{"molecule": "CC(C)(S)[C@@H](N)C(=O)O", "APTT, s": 15}
{"molecule": "C#C[C@]1(O)CC[C@H]2[C@@H]3CCc4cc(O)ccc4[C@H]3CC[C@@]21C", "APTT, s": 16.9}
{"molecule": "CN1C(=O)OC(C)(C)C1=O", "APTT, s": 17.8}

Give measured APTT for every item shown.
1. CCc1oc2ccccc2c1C(=O)c1cc(I)c(O)c(I)c1
2. O=C(O)c1cccnc1
3. O=C(N[C@H](CO)[C@H](O)c1ccc([N+](=O)[O-])cc1)C(Cl)Cl
4. CC(C)C(=O)Nc1ccc([N+](=O)[O-])c(C(F)(F)F)c1 [FLUTAMIDE]
5. CC(=O)Oc1cc(C(C)C)c(OCCN(C)C)cc1C
6. CC(=N)S [THIOACETAMIDE]

1: 16.8; 2: 24; 3: 17.4; 4: 18.5; 5: 21.3; 6: 17.5

Give measured APTT for every item shown.
1. Nc1nc(N)c2nc(-c3ccccc3)c(N)nc2n1
2. C[C@]12CCC(=O)C=C1CC[C@@H]1[C@@H]2CC[C@@]2(C)[C@H]1CC[C@]2(C)O
3. C[C@](N)(Cc1ccc(O)c(O)c1)C(=O)O
4. CCSCC[C@H](N)C(=O)O

1. 16.9
2. 15.7
3. 16.9
4. 19

---

So I've got a bunch of molecules here, and I need their BUN values.
# Species on record: Rattus norvegicus
# assayOverview: Open TG-GATES - Regimen: Daily Repeat
# Assay type: toxicity, organism-based, Sprague-Dawley
# Set-up: regimen Daily Repeat, gender Male, age 6 weeks
# statedConditions: in vivo, po, 0 mg/kg, […], tissue Plasma, route gavage, dose level Control, time 28 day
Answers are plain numbers, in mg/dL.

Solved cases (2 shown):
{"molecule": "CC(C)(S)[C@@H](N)C(=O)O", "measuredQuantity": "BUN", "testResult": 15.4}
{"molecule": "CN1C(=O)OC(C)(C)C1=O", "measuredQuantity": "BUN", "testResult": 15}

Give measured BUN for every item shown.
1. Nc1nc(N)c2nc(-c3ccccc3)c(N)nc2n1
2. CCN1CCCC1CNC(=O)c1cc(S(N)(=O)=O)ccc1OC (stereo unspecified) [SULPIRIDE]
3. O=C(O)c1cccnc1
4. C[C@]12CCC(=O)C=C1CC[C@@H]1[C@@H]2CC[C@@]2(C)[C@H]1CC[C@]2(C)O
5. C#C[C@]1(O)CC[C@H]2[C@@H]3CCc4cc(O)ccc4[C@H]3CC[C@@]21C
6. CC(=O)Oc1cc(C(C)C)c(OCCN(C)C)cc1C
7. C[C@](N)(Cc1ccc(O)c(O)c1)C(=O)O
8. CCSCC[C@H](N)C(=O)O

[16, 17.2, 17.8, 16.4, 16, 17.5, 15.4, 18.8]

Give measured BUN for every item shown.
1. CC(C)C(=O)Nc1ccc([N+](=O)[O-])c(C(F)(F)F)c1 [FLUTAMIDE]
2. CC(=N)S [THIOACETAMIDE]
3. CCc1oc2ccccc2c1C(=O)c1cc(I)c(O)c(I)c1
4. O=C(N[C@H](CO)[C@H](O)c1ccc([N+](=O)[O-])cc1)C(Cl)Cl
5. CCC(C)(C)C(=O)O[C@H]1C[C@@H](C)C=C2C=C[C@H](C)[C@H](CC[C@@H]3C[C@@H](O)CC(=O)O3)[C@H]21

1. 15.8
2. 18.8
3. 19.8
4. 17
5. 20

Any idea what BUN was measured for Oc1ncnc2[nH]ncc12 ?
20
